Please provide measured zone of inhibition at 100 µg/mL for the entries that follow.
Test system: Candida albicans
test: Antifungal activity against Candida albicans at 100 ug/ml after 48 hr by agar well diffusion method
Type: functional
setup-conditions: read-out: IZ
Give bare numbers, in mm.

For orientation, consider the following solved cases.
[
  {
    "smiles-repr": "COC(=O)/C(=C/c1ccc(OC)cc1)Cn1nnn(-c2ccc(OC)cc2)c1=O",
    "measure-name": "zone of inhibition at 100 µg/mL",
    "observed-value": 17
  },
  {
    "smiles-repr": "COC(=O)/C(=C/c1ccc(F)cc1)Cn1nnn(-c2ccc(OC)cc2)c1=O",
    "measure-name": "zone of inhibition at 100 µg/mL",
    "observed-value": 17
  }
]

Hi there! I need zone of inhibition at 100 µg/mL for each item below, if you can.
1. COc1ccc(-n2nnn(C/C(C#N)=C/c3ccc(OC)c(OC)c3)c2=O)cc1
2. COC(=O)/C(=C/c1ccc(Cl)cc1)Cn1nnn(-c2ccc(OC)cc2)c1=O
3. COc1ccc(-n2nnn(C/C(C#N)=C/c3ccc(C)cc3)c2=O)cc1

Reply |
1. 4
2. 5
3. 19
